Tested on: DeltatarO mutant
EXPERIMENT: S. aureus survival, RN4220 and DeltatarO strains – OD600, teichoic acid synthesis inhibitors, primary screen (AID 463173)
CONDITION DETAILS: S. aureus RN4220 wild type/DeltatarO growth, OD600, 18 h, hits give low values, screened at 18.75 µg/mL (by protocol)
Hit rate of the full screen: of about 52,000 compounds, about 4,300 (8.3%) were called active. This excerpt belongs to a sample that is enriched for actives.
MEASURE NAME: survival

COMPOUND	survival
COc1ccc(-c2csc(N)n2)cc1C	97% (inactive)
Cc1cc(N2CCN(c3cccc(C(F)(F)F)c3)CC2)n2nc(-c3ccccc3C)nc2n1	2% (active)
O=C(NCCc1nc2ccccc2n1CCCOc1ccc(Cl)cc1)C1CCCCC1	24% (active)
Cc1ccc(OCCn2c(CCNC(=O)C3CCCCC3)nc3ccccc32)cc1	61% (inactive)
Cc1ccc2cccc(NC(=O)c3cccc4c(Cl)cccc34)c2n1	63% (inactive)
Cc1cccc(-c2nc3nc(C)cc(N4CCN(c5ccccc5)CC4)n3n2)c1	60% (inactive)
Cc1ccc(-c2nc3nc(C)cc(N4CCN(c5cc(Cl)ccc5C)CC4)n3n2)cc1	86% (inactive)
Cc1cc(OCCCn2c(CCNC(=O)C3CCCCC3)nc3ccccc32)ccc1Cl	4% (active)
Cc1cc(N2CCN(c3cccc(C(F)(F)F)c3)CC2)n2nc(-c3ccccc3)nc2n1	41% (active)
CCC(=O)N1CCc2cc(S(=O)(=O)NC(Cc3ccccc3)C(=O)NCc3ccccc3)ccc21 (stereo unspecified)	65% (inactive)

Give reported survival value for CCOc1ccccc1C(=O)Nc1cccc2ccc(C)nc12
68% (inactive)

Answer with reported survival of COc1ccc(Br)cc1C(=O)Nc1cccc2ccc(C)nc12
73% (inactive)

Return reported survival. Input compound: Cc1ccc2[nH]c(CSc3nnc(NC(=O)COc4ccccc4)s3)cc(=O)c2c1
82% (inactive)

====

Tested on: DeltatarO mutant
EXPERIMENT: S. aureus survival, RN4220 and DeltatarO strains – OD600, teichoic acid synthesis inhibitors, primary screen (AID 463173)
CONDITION DETAILS: S. aureus RN4220 wild type/DeltatarO growth, OD600, 18 h, hits give low values, screened at 18.75 µg/mL (by protocol)
The campaign covered roughly 52,000 compounds. About 4,300 (8.3%) were called active. This excerpt belongs to a sample that is enriched for actives.
MEASURE NAME: survival (%)
The response must be a number in % with no trailing unit.

Examples with their reported survival follow.
COMPOUND	MEASURE NAME	RESULT
COc1ccc2ncc3c(-c4ccccc4)nn(-c4ccc(C)c(C)c4)c3c2c1	survival	18
CCc1ccc2ncc3c(-c4ccccc4)nn(-c4ccccc4)c3c2c1	survival	5
O=C(CSc1c2c(nc3ccccc13)CCC2)Nc1ccc(F)cc1	survival	127
CCOc1ccc(NC(=O)c2cc3sc(Cl)cc3n2CC)cc1	survival	84
CCn1c(C(=O)NCc2ccc(OC)cc2)cc2sc(Cl)cc21	survival	41

Fill in survival for record CCn1c(C(=O)NCc2ccccc2)cc2sc(Cl)cc21
34

Query survival for COc1ccccc1OCc1nnc(SCC(=O)N(C)C)o1
52

Specify reported survival for the compound shown: CCOC(=O)Cn1c2[n+](c3ccccc31)CC(O)CS2 (configuration not stated)
72

====

Tested on: DeltatarO mutant
EXPERIMENT: S. aureus survival, RN4220 and DeltatarO strains – OD600, teichoic acid synthesis inhibitors, primary screen (AID 463173)
CONDITION DETAILS: S. aureus RN4220 wild type/DeltatarO growth, OD600, 18 h, hits give low values, screened at 18.75 µg/mL (by protocol)
The campaign covered roughly 52,000 compounds. About 4,300 (8.3%) were called active. Many of the other results were omitted from the sample, so actives are more common in it than they were.
MEASURE NAME: survival (%)
Unit % implied. Number only.

Below are worked cases with known answers.
COMPOUND	MEASUREMENT UNIT	survival
O=c1ccc2cc(S(=O)(=O)Nc3ccc(OC(F)(F)F)cc3)ccc2[nH]1	%	91
O=C(Nc1cccnc1)c1cc(-c2ccc(Cl)cc2)on1	%	61
COc1cc(CNCCCSc2nnnn2C)cc(Br)c1OC	%	81
COc1cc(C(=O)N2CCc3ccccc32)cc(OC)c1OC	%	104
CCN1CCN(c2cc(C)c3cc(NC(=O)/C=C/c4ccc(OCCC(C)C)cc4)ccc3n2)CC1	%	112

Provide measured survival value, entry: CCc1ccccc1-n1nnc(-c2nsc(NC(=O)c3ccc(C)c(C)c3)n2)c1C
130

Quote survival reported for C=CCn1c(C(C)NC(=O)c2ccccc2Cl)n[nH]c1=S (centres undefined) please.
76

Let me know recorded survival for CCCCNC(=O)CCC1N=C2c3ccccc3N=C(SCC(=O)NCCc3ccc(OC)c(OC)c3)N2C1=O (centres undefined) , thanks.
64

Check the records and state survival for CCCCN1CC(c2nc3ccccc3n2CCCCOc2ccccc2C)CC1=O (centres undefined)
34

Provide measured survival value, entry: COCC(=O)NCc1ccc2c(c1)OCO2
104

Given CC1=C(C(=O)Nc2ccccc2)C(c2cccnc2)n2nc(SCc3ccccc3Cl)nc2N1 (centres undefined) , respond with its survival.
179

Dear colleague, please send me the reported survival for COc1ccccc1NC(=O)N1CCNCC1 when you can.
73

Report measured survival; entry is COc1ccc(OCC(=O)NCC(c2ccc(OC)cc2)N2CCCCC2)cc1 (centres undefined)
79

Specify measured survival for Cc1ccc(N2CCN(C(=O)c3cnn(-c4ccc(F)cc4F)c3C3CCN(C(=O)OC(C)(C)C)CC3)CC2)c(C)c1 .
91

Specify survival for CCC(C)NC(=O)c1sc2nc3n(c(=O)c2c1C)CCC3 (centres undefined) and stop.
93

State its survival: O=C(NCc1ccccc1F)c1ccc(CSc2nc3cccnc3n2Cc2ccccc2)cc1
75

State, in one line, measured survival of COc1ccc(-c2nc3c4ccccc4n(CC(=O)Nc4cc(F)ccc4F)c(=O)n3n2)cc1
84

Indicate its recorded survival; the compound in question is COC(=O)c1cnn2c(C)c(Cc3c(C)cc(C)cc3C)c(C)nc12
83

====

Tested on: DeltatarO mutant
EXPERIMENT: S. aureus survival, RN4220 and DeltatarO strains – OD600, teichoic acid synthesis inhibitors, primary screen (AID 463173)
CONDITION DETAILS: S. aureus RN4220 wild type/DeltatarO growth, OD600, 18 h, hits give low values, screened at 18.75 µg/mL (by protocol)
Out of some 52,000 compounds screened, about 4,300 (8.3%) were called active. Many of the other results were omitted from the sample, so actives are more common in it than they were.
MEASURE NAME: survival (%)
// note: answer is a bare numeric in %

// below: answered compounds
CHEM SMILES	MEASUREMENT UNIT	survival
CCCSc1ncc(Cl)c(C(=O)Nc2c(C(=O)Nc3ccc(C)cc3)oc3ccccc23)n1	%	62
Cc1ccc(C)c(Nc2nn3c(=O)c4ccc(C(=O)NCc5cccs5)cc4nc3s2)c1	%	65
Oc1ccccc1Nc1nc2ccccc2n2nnnc12	%	80

Now take the following compound into account.
For the compound CCSc1oc(-c2ccco2)nc1S(=O)(=O)c1ccc(Br)cc1 , report survival.
54

====

Test system: DeltatarO mutant
EXPERIMENT: S. aureus survival, RN4220 and DeltatarO strains – OD600, teichoic acid synthesis inhibitors, primary screen (AID 463173)
CONDITION DETAILS: S. aureus RN4220 wild type/DeltatarO growth, OD600, 18 h, hits give low values, screened at 18.75 µg/mL (by protocol)
The whole screen tested about 52,000 compounds, of which about 4,300 (8.3%) were called active. The list comes from a sample in which actives are over-represented; it also holds close analogues and randomly drawn compounds.
Please assign rule not met whenever survival is at or above 80%, and rule met whenever it is below.

// below: answered compounds
CHEM SMILES	CLASS ASSIGNMENT
C#CCOc1ccc(C2C3=C(CCCC3=O)N(CCC(=O)O)C3=C2C(=O)CCC3)cc1	rule met
FC(F)(F)COc1nc(OCC(F)(F)F)nc(N(c2ccccc2)c2ccccc2)n1	rule met
Cc1ccc(NC(=O)c2cnc(SCC(=O)N3CCCc4ccccc43)n(C)c2=O)cc1C	rule not met

In the record for O=C(Cn1c(=O)oc2cc(S(=O)(=O)N3CCCC3)ccc21)NCc1ccc(F)cc1 , is survival less than 80%?
rule not met

====

Tested on: DeltatarO mutant
EXPERIMENT: S. aureus survival, RN4220 and DeltatarO strains – OD600, teichoic acid synthesis inhibitors, primary screen (AID 463173)
CONDITION DETAILS: S. aureus RN4220 wild type/DeltatarO growth, OD600, 18 h, screened at 18.75 µg/mL (by protocol)
Hit rate of the full screen: of about 52,000 compounds, about 4,300 (8.3%) were called active. No stated cut-off is given here; in the data, active means survival mostly below about 52% (no sharp cut-off); inactive means mostly above about 56%. What follows is part of a selection rich in actives, with near analogues and random picks from the rest.
Select the matching outcome among t (active), f (inactive)

Example cases with answers are listed next.
CHEM SMILES	TARGET	CLASS ASSIGNMENT
Cc1ccc(NC(=O)CCn2c(=O)c3cccn3c3ccccc32)cc1Cl	DeltatarO mutant	t
CC(C)c1ccc(NC(=O)CCn2c(=O)c3cccn3c3ccccc32)cc1	DeltatarO mutant	f
Cc1ccc(CCNC(=O)c2sc3ncccc3c2-n2c(C)ccc2C)cc1	DeltatarO mutant	f
O=C(COc1ccccc1[N+](=O)[O-])Nc1cccc(-c2nc3ccccc3s2)c1	DeltatarO mutant	f
Cc1c(NC(=O)c2nc3ccccc3nc2N2CCCCC2)cccc1[N+](=O)[O-]	DeltatarO mutant	f

For this compound, state the assay outcome: Cc1ccc(NC(=O)CCCn2c(=O)c3cccn3c3ccccc32)cc1C
f

Hey, what did the test say about COCCNC(=O)c1sc2ncccc2c1-n1c(C)ccc1C ?
f
